Protocol text: BSK_hDFCGF_Proliferation: Cell Proliferation Assessment in the BioMAP Diversity Plus: hDFCGF Assay (AID 2283059);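 also: curves fitted for both rise and fall of signal versus DMSO baseline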
Conditions used: primary human foreskin fibroblasts
Activity calls are given as the source filed them. The calls were made as follows: active = hit-call score of the fitted dose curve at least 0.9, where 1 is the maximum; inactive = score below 0.9.
Returns: one label drawn from active, inactive

| Smiles str | Qualitative label |
| --- | --- |
| CCC(C)(CC)c1cc(NC(=O)c2c(OC)cccc2OC)on1 | inactive |
| ClC1=C(Cl)[C@]2(Cl)[C@@H]3[C@@H](Cl)[C@H]4O[C@H]4[C@@H]3C1(Cl)C2(Cl)Cl | active |

# ---- query molecule ----
Prompt: Can you look up the reported call for `CN(C)CCO` for me?
Response: inactive

----------
Protocol text: ATG_NRF2_ARE_CIS: Attagene CIS-FACTORIAL HepG2 Assay for human Nuclear Factor Erythroid 2 Related Factor 2 (NFR2) response to Antioxidant Response Elements (ARE) (AID 2282992)
Conditions used: HepG2 Attagene ARE/NRF2 reporter, transcription factor activity; actives raise or lower the signal
Active and inactive are the calls of the source. The calls were made as follows: active = hit-call score of the fitted dose curve at least 0.9, where 1 is the maximum; inactive = score below 0.9.
Returns: one label drawn from T (active), F (inactive)

Look over these answered cases.
| Smiles str | Qualitative label |
| --- | --- |
| Cc1cccc(C)c1N | F |
| Cc1cc(O)ccc1Cl | F |

# ---- query compound ----
Prompt: Can you look up the reported call for `Cc1ccc(O)c(C)c1` for me?
Response: T

----------
Read-out: Macrophage colony-stimulating factor (MCSF), CSF1 (gene 1435)
Protocol text: BSK_hDFCGF_MCSF: BioMAP Diversity Plus: hDFCGF Assay for Macrophage colony-stimulating factor (MCSF) Biomarker Activity (AID 2283060)
Conditions used: primary human foreskin fibroblasts; actives raise or lower the signal
Calls of active or inactive are those of the source. The calls were made as follows: active = hit-call score of the fitted dose curve at least 0.9, where 1 is the maximum; inactive = score below 0.9.
Returns: one label drawn from active, inactive

Look over these answered cases.
| Molecule | Qualitative label |
| --- | --- |
| CC#Cc1cc(C)nc(Nc2ccccc2)n1 | inactive |
| Clc1ccc(C(c2ccccc2Cl)C(Cl)(Cl)Cl)cc1 (stereo unspecified) | active |

Prompt: Can you look up the reported call for `Oc1ccc(C(c2ccc(O)cc2)(C(F)(F)F)C(F)(F)F)cc1` for me?
Response: active

Prompt: Can you look up the reported call for `C[C@]12CCC(=O)C=C1CC[C@@H]1[C@@H]2CC[C@]2(C)C(=O)CC[C@@H]12` for me?
Response: inactive

Prompt: Can you look up the reported call for `CCOP(=S)(OCC)SCSC(C)(C)C` for me?
Response: inactive

Prompt: Can you look up the reported call for `ClC1=C(Cl)[C@]2(Cl)[C@@H]3[C@@H]4C[C@@H]([C@H]5O[C@@H]45)[C@@H]3[C@@]1(Cl)C2(Cl)Cl` for me?
Response: inactive

----------
Read-out: CD40, CD40 (gene 958)
Protocol text: BSK_SAg_CD40: BioMAP Diversity Plus: SAg Assay for CD40 Biomarker Activity (AID 2283088)
Conditions used: primary human HUVEC with PBMC; actives raise or lower the signal
Activity calls are given as the source filed them. The calls were made as follows: active = hit-call score of the fitted dose curve at least 0.9, where 1 is the maximum; inactive = score below 0.9.
Returns: one label drawn from active, inactive

Look over these answered cases.
| Smiles str | Qualitative label |
| --- | --- |
| Cc1ccccc1O | inactive |
| CCCCCCCCCc1ccc(O)cc1 | active |

Prompt: Can you look up the reported call for `CC1=C2C[C@H]3[C@@H](CC=C4C[C@@H](O)CC[C@@]43C)[C@@H]2CC[C@]12O[C@@H]1C[C@H](C)CN[C@H]1[C@H]2C` for me?
Response: inactive
